# Assay Info: GLP 28-day repeat oral dose toxicity and toxicokinetics, mouse
# Setup Conditions: mouse, in vivo, po
Outcome Measure: MTD at 28 days (mg/kg/day)

INSERT INTO assay_data (compound, outcome_measure, observed_result) VALUES
  ('N#Cc1cnc(Nc2cc(NCC3CNCCO3)c(C(F)(F)F)cn2)cn1 (stereo not shown)', 'MTD at 28 days', 75);

---

# Assay Info: GLP 28-day repeat oral dose toxicity and toxicokinetics, monkey
# Type: in vivo
# Setup Conditions: in vivo, po; Monkey Female; 10 mg/kg/day, daily dosing for 28 days
Outcome Measure: Cmax (ng/mL)

INSERT INTO assay_data (compound, outcome_measure, observed_result) VALUES
  ('N#Cc1cnc(Nc2cc(NCC3CNCCO3)c(C(F)(F)F)cn2)cn1 (stereo not shown)', 'Cmax', 1870);
